System: RXF 393 renal
Assay protocol: NCI tumour cell line growth inhibition, 48 h
Measurement name: TGI

Task: Check the records and state TGI for COc1cccc(C(=O)O[C@H]2[C@@H]3[C@]4(OC(C)=O)CO[C@@H]4C[C@H](O)[C@@]3(C)C(=O)[C@H](OC(C)=O)C3=C(C)[C@@H](OC(=O)[C@H](O)[C@@H](NC(=O)OC(C)(C)C)c4ccco4)C[C@]2(O)C3(C)C)c1
Output: > 9.16 µM

Task: Check the records and state TGI for CC(C)=CCC\C(C)=C/C=C/C(C)=C\C=C\C(C)=C/C=C/C=C(C)\C=C\C=C(C)/C=C/C=C(/C)CCC=C(C)C
Output: > 100 µM

Task: Check the records and state TGI for O=C(NC(=O)c1ccccc1[N+](=O)[O-])Nc1ccc(Oc2ncc(Br)cn2)c(Cl)c1
Output: 0.0321 µM

###

Tested on: SN12C renal
Assay protocol: NCI tumour cell line growth inhibition, 48 h
Can you tell me TGI for the items I'm about to list?

Task: Check the records and state TGI for O=C1NC(=NCCc2cccc(F)c2)S/C1=C\c1ccc2ncccc2c1
Output: > 25 µM

Task: Check the records and state TGI for COc1ccc(-c2c(C#N)c(-c3ccc(C)cc3)n(NS(=O)(=O)c3ccc(C)cc3)c(=O)c2C#N)cc1
Output: > 100 µM

Task: Check the records and state TGI for Nc1nc(Cl)cc(NCC2(CO)CC(=O)C2)n1
Output: > 100 µM

Task: Check the records and state TGI for CC1CCc2nc[nH]c(=O)c21 (stereo unspecified)
Output: > 100 µM

Task: Check the records and state TGI for Cc1ccc(CN2CCC(C(=O)Nc3ccc(-c4cc5ccccc5[nH]4)cc3)CC2)o1
Output: > 100 µM

Task: Check the records and state TGI for C=CC(=O)Nc1cc(Nc2ncc(C(=O)OC(C)C)c(-c3cn(C)c4ccccc34)n2)c(OC)cc1N(C)CCN(C)C
Output: 15.4 µM

###

System: 786-0 renal
Assay protocol: NCI tumour cell line growth inhibition, 48 h
*1 amine or outer side, *2 acyl side, *3 side chain or, on linkers, in order; H or OH if unused. Where a SMILES comes first, the peptide text is derived from it. Bridges are numbered along the chain shown (N, C = ends). [ ]: non-standard residue; d: D form. The star is where a group is joined. Phe(3,5-F2) = N[C@@H](Cc1cc(F)cc(F)c1)C(=O)O; Pro(4R-Me) = C[C@H]1CN[C@H](C(=O)O)C1; aThr = C[C@H](O)[C@H](N)C(=O)O; NMeAc5c = CNC1(C(=O)O)CCCC1; Pip = O=C(O)[C@@H]1CCCCN1; X10 = Fc1cc(C2CC2)ccc1N*; Boc = CC(C)(C)OC(=O)*; CO = O=C([*:1])[*:2]; OBn = c1ccc(CO*)cc1
Measurement name: TGI

Task: Check the records and state TGI for CCCCCCCCCCCCCCNC(=O)CCC(NC(=O)c1ccc(N(C)Cc2cnc3nc(N)nc(N)c3n2)cc1)C(=O)NCCCCCCCCCCCCCC (stereo not drawn)
Output: 52.1 µM

Task: Check the records and state TGI for Cc1nc2n(c1/C=C1/C(=O)Nc3cccc(Cl)c31)CCS2
Output: > 100 µM

Task: Check the records and state TGI for OCc1cc2ccccc2c2c3c(ccc12)OCO3
Output: 203 µM

Task: Check the records and state TGI for CCOC(=O)/C=C/CC(C)(C)CCOC(C)=O
Output: > 10 µM

Task: Check the records and state TGI for COc1cc(C2c3cc4c(cc3OC(N3CCOCC3)C2C)OCO4)ccc1O (stereo not drawn)
Output: > 100 µM

Task: Check the records and state TGI for COc1cccc(C2c3cc4c(cc3OC(C)(N3CCCC3)C2C)OCO4)c1O (stereo not drawn)
Output: > 56 µM

Task: Check the records and state TGI for COc1cc2c(c(OC)c1OC)C(=O)[C@@H]1[C@H]2N1C(N)=O
Output: > 100 µM

Task: Check the records and state TGI for S=C1Nc2ccccc2SC1c1ccccc1 (stereo not drawn)
Output: > 100 µM

Task: Check the records and state TGI for COc1cc(C(=O)N(C(=S)OCc2ccccn2)c2ccccc2)cc(OC)c1OC
Output: > 100 µM

Task: Check the records and state TGI for CN(C(=O)C(Cc1ccccc1)NC(=O)OC(C)(C)C)C1(C(=O)NC(Cc2ccccc2)C(=O)OCc2ccccc2)CCCC1 (stereo not drawn) (Boc-Phe-[NMeAc5c]-Phe-OBn; configuration not given here)
Output: > 100 µM

Task: Check the records and state TGI for NC(N)=N/N=C/c1c(-c2ccc(N)cc2)nc2sccn12
Output: 62 µM

Task: Check the records and state TGI for Cc1c(C(=O)CC(=O)C(=O)Nc2ccccc2C(F)(F)F)[n+](=O)c2ccccc2n1[O-]
Output: > 100 µM

Task: Check the records and state TGI for C[C@@H]1C[C@H]2C(=O)O[C@@H](C)[C@H](NC(=O)[C@H](Cc3cc(F)cc(F)c3)NC(=O)Nc3ccc(C4CC4)cc3F)C(=O)N3CCC[C@H]3C(=O)N3CCCC[C@H]3C(=O)N[C@@H](C)C(=O)N2C1 ({X10-CO}-[Phe(3,5-F2)][aThr]P[Pip]A[Pro(4R-Me)]; ester 2-C)
Output: > 38.4 µM

Task: Check the records and state TGI for CC1(C)N=[N+]([O-])C1(C)C
Output: > 100 µM

Task: Check the records and state TGI for COC(=O)c1cc(=O)nc2sc3cccc(C)c3n12
Output: 47.3 µM

Task: Check the records and state TGI for CN(C)C(=O)O/N=C1/C(c2c(O)[nH]c3ccccc23)=Nc2ccccc21
Output: 21.8 µM

Task: Check the records and state TGI for CC1(C(=O)O)CCC[C@@]2(C)C1CC[C@@]1(C)c3cocc3CCC21 (stereo partly drawn)
Output: > 100 µM

Task: Check the records and state TGI for COc1ccc(-c2c(C#N)c(-c3ccc(C)cc3)n(NS(=O)(=O)c3ccc(C)cc3)c(=O)c2C#N)cc1
Output: > 100 µM

Task: Check the records and state TGI for COc1ccc(CC2c3cc4c(cc3CCN2C)OCO4)c(C=O)c1OC (stereo not drawn)
Output: > 100 µM

Task: Check the records and state TGI for COC(=O)/C(C#N)=C1\NC(=O)c2ccccc21
Output: > 100 µM

Task: Check the records and state TGI for O=C1/C(=C\c2ccccc2)C(NC2CCCCC2)c2ccccc21 (stereo not drawn)
Output: 2.14 µM

Task: Check the records and state TGI for COc1cc2c(c3oc4c(O)cccc4c(=O)c13)CC(C(C)(O)CO)O2 (stereo not drawn)
Output: > 100 µM

Task: Check the records and state TGI for CCn1c(C)nn2c(=O)c3ccccc3nc2c1=O
Output: > 100 µM

Origin of measurements: PubChem BioAssay (NCI)
